# EXPERIMENT_DESCRIPTION: G protein-coupled receptor (GPCR) small molecule agonists, calcium flux assay: HEK293 wild type cell line counter screen (AID 1920065)
# CONDITION_NOTES: HEK293 WT calcium flux, fluorescence, agonist mode; series mostly up to 57.6 µM
Active and inactive are the calls of the source. Calls come from the whole dose curve.
QUANTITY_KIND: activation

INSERT INTO results (compound, observed_measurement) VALUES
  ('CCCSP(=O)(OCC)Oc1ccc(Br)cc1Cl (centres undefined)', 'inactive'),
  ('NNC(N)=O', 'inactive'),
  ('N#CC(CCc1ccc(Cl)cc1)(Cn1cncn1)c1ccccc1 (centres undefined)', 'inactive'),
  ('Nc1ccc(Cl)cc1C(=O)c1ccccc1F', 'inactive'),
  ('CCN(CC)C(=O)Cl', 'inactive'),
  ('CC#Cc1cc(C)nc(Nc2ccccc2)n1', 'inactive'),
  ('O=C(Nc1ccc2[nH]ccc2c1)c1cc2cc(F)ccc2n1Cc1cccc(F)c1', 'inactive'),
  ('CCOC(=O)C(SP(=S)(OC)OC)c1ccccc1 (centres undefined)', 'inactive'),
  ('CC(C)(C)c1ccc(CCOc2ncnc3ccccc23)cc1', 'inactive'),
  ('BrCC1CO1 (centres undefined)', 'inactive'),
  ('O=C(Cc1ccccc1)OCCc1ccccc1', 'inactive'),
  ('Nc1ccc(N=Nc2ccccc2)cc1', 'inactive'),
  ('O=C(O)CCCCCCNC1c2ccccc2CCc2ccccc21', 'inactive'),
  ('O=Cc1ccc2c(c1)OCO2', 'inactive');
